systemName: T1, his-tagged human CDH6 extracellular region protein (hCDH6 ECD-his) (human, UniProt P55285 19-615)
T1 construct: also called Human CDH6-his; hCDH6-his; not shown: his tag
T1 sequence: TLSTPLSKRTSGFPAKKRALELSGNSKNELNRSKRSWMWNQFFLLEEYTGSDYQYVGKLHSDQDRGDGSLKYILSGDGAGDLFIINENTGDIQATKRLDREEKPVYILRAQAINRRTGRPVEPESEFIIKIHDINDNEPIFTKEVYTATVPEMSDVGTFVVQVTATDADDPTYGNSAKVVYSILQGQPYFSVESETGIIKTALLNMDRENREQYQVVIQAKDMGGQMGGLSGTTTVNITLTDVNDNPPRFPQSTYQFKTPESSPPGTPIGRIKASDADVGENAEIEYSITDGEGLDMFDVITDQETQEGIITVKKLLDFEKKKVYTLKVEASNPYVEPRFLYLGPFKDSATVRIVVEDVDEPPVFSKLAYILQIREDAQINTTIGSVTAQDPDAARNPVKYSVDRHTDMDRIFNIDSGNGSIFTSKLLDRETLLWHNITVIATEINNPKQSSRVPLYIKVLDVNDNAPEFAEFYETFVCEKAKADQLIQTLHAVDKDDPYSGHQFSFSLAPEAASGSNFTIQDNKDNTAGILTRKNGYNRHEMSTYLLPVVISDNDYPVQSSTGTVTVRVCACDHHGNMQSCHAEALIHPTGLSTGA
methodDescription: ELISA, coated antigen

>  <binder>
hCDH6-1-H4L1 (antibody, V domains shown, Humanized) VH: EVQLVQSGAEVKKPGSSVKVSCKASGYTFTNYWMHWVRQRPGQGLEWMGDIDPSHSETHYTQKFKDRVTITVDKSTSTAYMELSSLRSEDTAVYYCARGDLGRFDYWGQGTTVTVSS VL: DIVMTQSPDSLAVSLGERATINCRASESVSIHGTHLMHWYQQKPGQPPKLLIYAASNLESGVPDRFSGSGSETDFTLTISSLQAEDVAVYYCQQSFEDPWTFGGGTKVEIK

>  <resultUnits>
nM

>  <EC50>
0.031

$$$$
>  <binder>
hCDH6-1-H2L3 (antibody, V domains shown, Humanized) VH: EVQLVQSGAEVKKPGSSVKVSCKASGYTFTNYWMHWVRQAPGQGLEWMGDIDPSHSETHYTQKFKDRVTITVDKSTSTAYMELSSLRSEDTAVYYCARGDLGRFDYWGQGTTVTVSS VL: DIQMTQSPSSLSASVGDRVTITCRASESVSIHGTHLMHWYQQKPGKPPKLLIYAASNLESGVPSRFSGSGSETDFTFTISSLQPEDIATYYCQQSFEDPWTFGGGTKVEIK

>  <resultUnits>
nM

>  <EC50>
0.029

$$$$
>  <binder>
hCDH6-14-H2L1 (antibody, V domains shown, Humanized) VH: EIQLVQSGAEVKKPGASVKVSCKASGYTFTDNYINWVRQAPGQRLEWMGWIYPGTGNSYYNEKFKGRVTITVDTSASTAYMELSSLRSEDTAVYYCASSYGDSFDYWGQGTTVTVSS VL: DIQMTQSPSSLSASVGDRVTITCRASQDIRNYLNWYQQKPGKAFKLLISYTSRLHSGVPSRFSGSGSGTDFTFTISSLQPEDIATYYCQQYSQLPWTFGGGTKVEIK

>  <resultUnits>
nM

>  <EC50>
0.076

$$$$
>  <binder>
hCDH6-14-H6L2 (antibody, V domains shown, Humanized) VH: EVQLVQSGAEVKKPGASVKVSCKASGYTFTDNYINWVRQAPGQRLEWMGWIYPGTGNSYYNEKFKGRVTITVDTSASTAYMELSSLRSEDTAVYLCASSYGDSFDYWGQGTTVTVSS VL: DIQMTQSPSSLSASVGDRVTITCRASQDIRNYLNWYQQKPGGAPKLLISYTSRLHSGVPSRFSGSGSGTDFTFTISSLQPEDIATYYCQQYSQLPWTFGGGTKVEIK

>  <resultUnits>
nM

>  <EC50>
0.093

$$$$
>  <binder>
hCDH6-1-H3L2 (antibody, V domains shown, Humanized) VH: EVQLVQSGAEVKKPGSSVKVSCKASGYTFTNYWMHWVRQAPGQGLEWMGDIDPSHSETHYTQKFKDRVTLTVDKSTSTAYMELSSLRSEDTAVYYCARGDLGRFDYWGQGTTVTVSS VL: DIVMTQSPDSLAVSLGERATINCRASESVSIHGTHLMHWYQQKSGQPPKLLIYAASNLESGVPDRFSGSGSETDFTLTISSLQAEDVAVYYCQQSFEDPWTFGGGTKVEIK

>  <resultUnits>
nM

>  <EC50>
0.026

$$$$
>  <binder>
hCDH6-1-H1L2 (antibody, V domains shown, Humanized) VH: EVQLVQSGAEVKKPGSSVKVSCKASGYTFSNYWMHWVRQAPGQGLEWMGDIDPSHSETHYTQKFKDRVTITVDKSTSTAYMELSSLRSEDTAVYYCARGDLGRFDYWGQGTTVTVSS VL: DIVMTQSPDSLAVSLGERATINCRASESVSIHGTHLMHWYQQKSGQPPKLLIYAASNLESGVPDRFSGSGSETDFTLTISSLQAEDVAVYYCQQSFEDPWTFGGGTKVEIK

>  <resultUnits>
nM

>  <EC50>
0.027

$$$$
>  <binder>
hCDH6-14-H1L3 (antibody, V domains shown, Humanized) VH: EVQLVQSGAEVKKPGASVKVSCKASGYTFTDNYINWVRQAPGQRLEWMGWIYPGTGNSYYNEKFKGRVTITVDTSASTAYMELSSLRSEDTAVYYCASSYGDSFDYWGQGTTVTVSS VL: DIVMTQSPDSLAVSLGERATINCRASQDIRNYLNWYQQKPGQTPKLLISYTSRLHSGVPDRFSGSGSGTDFTLTISSLQAEDVAVYYCQQYSQLPWTFGGGTKVEIK

>  <resultUnits>
nM

>  <EC50>
0.056

$$$$
>  <binder>
hCDH6-14-H3L2 (antibody, V domains shown, Humanized) VH: EIQLVQSGAEVKKPGASVKVSCKASGYTFTDNYINWVRQAPGQRLEWMGWIYPGTGNSYYNEKFKGRVTLTVDTSASTAYMELSSLRSEDTAVYYCASSYGDSFDYWGQGTTVTVSS VL: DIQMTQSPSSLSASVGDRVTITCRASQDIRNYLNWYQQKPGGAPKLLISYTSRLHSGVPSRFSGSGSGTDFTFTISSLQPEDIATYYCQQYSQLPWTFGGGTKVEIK

>  <resultUnits>
nM

>  <EC50>
0.074

$$$$
>  <binder>
hCDH6-14-H5L2 (antibody, V domains shown, Humanized) VH: EVQLQQSGAEVKKPGASVKVSCKASGYTFTDNYINWVRQAPGQRLEWMGWIYPGTGNSYYNEKFKGRVTITVDTSASTAYMELSSLRSEDTAVYYCASSYGDSFDYWGQGTTVTVSS VL: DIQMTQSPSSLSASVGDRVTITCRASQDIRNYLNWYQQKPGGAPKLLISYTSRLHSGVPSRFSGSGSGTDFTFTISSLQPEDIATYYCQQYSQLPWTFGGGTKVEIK

>  <resultUnits>
nM

>  <EC50>
0.109

$$$$
>  <binder>
CHI-CDH6-1 (antibody, human IgG1, kappa, V domains shown, also called CHI-hCDH6-1; CH1-CDH6-1) VH: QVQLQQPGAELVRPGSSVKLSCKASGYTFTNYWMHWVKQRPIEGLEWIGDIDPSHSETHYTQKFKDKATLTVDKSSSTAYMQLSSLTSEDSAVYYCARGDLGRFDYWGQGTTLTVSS VL: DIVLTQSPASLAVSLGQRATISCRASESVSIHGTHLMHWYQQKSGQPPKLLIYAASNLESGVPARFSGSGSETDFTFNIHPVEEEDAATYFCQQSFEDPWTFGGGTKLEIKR

>  <resultUnits>
nM

>  <EC50>
0.032

$$$$
